Values compiled from patent US20260217652A1.

assay: Pharmacokinetic evaluation in mice; format: in vivo; details: mouse, plasma, po, intragastric administration group 5 mg/kg, read-out: Bioavailability F %
Param threshold (40%) applies to bioavailability; output TRUE when value >= threshold, FALSE when value < threshold.

- COMPOUND: "Cc1cnc(-c2cccc(C(=O)O)c2)c(F)c1-n1c(C)cc(OCc2ncc(F)cc2F)c(Cl)c1=O [Compound 29-P1]"
  ASSIGNED_CATEGORY: "TRUE"
- COMPOUND: "Cc1cnc(-c2cccc(S(C)(=O)=O)c2)c(F)c1-n1c(C)cc(OCc2ncc(F)cc2F)c(Cl)c1=O [Compound 33-P1]"
  ASSIGNED_CATEGORY: "FALSE"
- COMPOUND: "Cc1cnc(-c2cccc(C(=O)N(C)C)c2)c(F)c1-n1c(C)cc(OCc2ncc(F)cc2F)c(Cl)c1=O (single isomer, unassigned) [Compound 32-P1]"
  ASSIGNED_CATEGORY: "TRUE"
- COMPOUND: "Cc1cnc(-c2cccc(C(N)=O)c2)c(F)c1-n1c(C)cc(OCc2ncc(F)cc2F)c(Cl)c1=O [Compound 30-P1]"
  ASSIGNED_CATEGORY: "TRUE"
- COMPOUND: "CNC(=O)c1cccc(-c2ncc(C)c(-n3c(C)cc(OCc4ncc(F)cc4F)c(Cl)c3=O)c2F)c1 [Compound 31-P1]"
  ASSIGNED_CATEGORY: "FALSE"
